Tested on: Pseudomonas aeruginosa
Experiment: Antibacterial activity against Pseudomonas aeruginosa MTCC 741 assessed as growth inhibition after 24 hr by agar streak dilution method
Format: functional
Conditions: MTCC 741, 24 h
QUANTITY NAME: MIC (µg/mL)
Answers are plain numbers, in µg/mL.

[[record]]
compound = "CC1CC(C)CN(c2nc(-c3ccc(NCC(=O)Nc4ccc(C#N)cc4)cc3)nc(N3CC(C)CC(C)C3)n2)C1 (configuration not stated)"
quantity_name = "MIC"
unit_tag = "µg/mL"
result = 50

[[record]]
compound = "CC(=O)Nc1ccc2nc(NC(=O)CNc3ccc(-c4nc(N5CC(C)CC(C)C5)nc(N5CC(C)CC(C)C5)n4)cc3)sc2c1 (configuration not stated)"
quantity_name = "MIC"
unit_tag = "µg/mL"
result = 50

[[record]]
compound = "CC1CC(C)CN(c2nc(-c3ccc(NCC(=O)Nc4nc5ccccc5s4)cc3)nc(N3CC(C)CC(C)C3)n2)C1 (configuration not stated)"
quantity_name = "MIC"
unit_tag = "µg/mL"
result = 50

[[record]]
compound = "O=C(O)c1cn(C2CC2)c2cc(N3CCNCC3)c(F)cc2c1=O"
quantity_name = "MIC"
unit_tag = "µg/mL"
result = 0.78

[[record]]
compound = "CC1CC(C)CN(c2nc(-c3ccc(NCC(=O)Nc4ccc(I)cc4)cc3)nc(N3CC(C)CC(C)C3)n2)C1 (configuration not stated)"
quantity_name = "MIC"
unit_tag = "µg/mL"
result = 25

[[record]]
compound = "CCOc1ccc(NC(=O)CNc2ccc(-c3nc(N4CC(C)CC(C)C4)nc(N4CC(C)CC(C)C4)n3)cc2)cc1 (configuration not stated)"
quantity_name = "MIC"
unit_tag = "µg/mL"
result = 50

[[record]]
compound = "Cc1ccc2nc(NC(=O)CNc3ccc(-c4nc(N5CC(C)CC(C)C5)nc(N5CC(C)CC(C)C5)n4)cc3)sc2c1 (configuration not stated)"
quantity_name = "MIC"
unit_tag = "µg/mL"
result = 50

[[record]]
compound = "CC(=O)Nc1ccc(NC(=O)CNc2ccc(-c3nc(N4CC(C)CC(C)C4)nc(N4CC(C)CC(C)C4)n3)cc2)cc1 (configuration not stated)"
quantity_name = "MIC"
unit_tag = "µg/mL"
result = 50

[[record]]
compound = "CC1CC(C)CN(c2nc(-c3ccc(NCC(=O)Nc4nc5ccc(Br)cc5s4)cc3)nc(N3CC(C)CC(C)C3)n2)C1 (configuration not stated)"
quantity_name = "MIC"
unit_tag = "µg/mL"
result = 25

[[record]]
compound = "CCOc1ccc2nc(NC(=O)CNc3ccc(-c4nc(N5CC(C)CC(C)C5)nc(N5CC(C)CC(C)C5)n4)cc3)sc2c1 (configuration not stated)"
quantity_name = "MIC"
unit_tag = "µg/mL"
result = 12.5


Please report MIC for every entry that follows.
1. CC1CC(C)CN(c2nc(-c3ccc(NCC(=O)Nc4nc5ccc(F)cc5s4)cc3)nc(N3CC(C)CC(C)C3)n2)C1 (configuration not stated)
2. CC1CC(C)CN(c2nc(-c3ccc(NCC(=O)Nc4ccc(Br)cc4)cc3)nc(N3CC(C)CC(C)C3)n2)C1 (configuration not stated)
3. CC1CC(C)CN(c2nc(-c3ccc(NCC(=O)Nc4ccccc4)cc3)nc(N3CC(C)CC(C)C3)n2)C1 (configuration not stated)
4. COc1ccc(NC(=O)CNc2ccc(-c3nc(N4CC(C)CC(C)C4)nc(N4CC(C)CC(C)C4)n3)cc2)cc1 (configuration not stated)
5. COc1ccc2nc(NC(=O)CNc3ccc(-c4nc(N5CC(C)CC(C)C5)nc(N5CC(C)CC(C)C5)n4)cc3)sc2c1 (configuration not stated)
6. CC1CC(C)CN(c2nc(-c3ccc(NCC(=O)Nc4ccc(Cl)cc4)cc3)nc(N3CC(C)CC(C)C3)n2)C1 (configuration not stated)

Response:
1: 25; 2: 12.5; 3: 50; 4: 50; 5: 50; 6: 25

Request: Answer with the recorded MIC for the compound listed here: CC1CC(C)CN(c2nc(-c3ccc(NCC(=O)Nc4nc5ccc(Cl)cc5s4)cc3)nc(N3CC(C)CC(C)C3)n2)C1 (configuration not stated)
Response: 25
